# credit: patent US20250304644A1

- Study System: human SNAP-tagged GIPR (Homo sapiens, UniProt P48546)
- Construct: host or cells: HEK293A
- Sequence (P48546 22-466): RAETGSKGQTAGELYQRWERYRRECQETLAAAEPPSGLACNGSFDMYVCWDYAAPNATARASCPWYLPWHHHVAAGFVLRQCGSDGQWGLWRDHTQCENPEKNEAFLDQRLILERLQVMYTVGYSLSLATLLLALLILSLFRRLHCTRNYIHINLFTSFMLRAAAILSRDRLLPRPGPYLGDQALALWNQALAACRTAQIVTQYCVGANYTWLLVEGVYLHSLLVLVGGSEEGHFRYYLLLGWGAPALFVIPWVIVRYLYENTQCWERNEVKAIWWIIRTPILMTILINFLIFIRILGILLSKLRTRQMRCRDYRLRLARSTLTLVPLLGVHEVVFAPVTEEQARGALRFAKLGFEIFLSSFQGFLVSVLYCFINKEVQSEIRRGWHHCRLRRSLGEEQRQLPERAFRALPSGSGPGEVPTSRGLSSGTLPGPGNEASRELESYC
- Assay Procedure: Receptor internalization assay, HEK293A cells expressing human SNAP-tagged GIPR
- Assay type: cell-based
- Test Settings: relative to hGIP 1-42 = 100
*1 amine or outer side, *2 acyl side, *3 side chain or, on linkers, in order; H or OH if unused. Where no end group is shown, it is not given here. Side-chain parts run from the residue outwards. [ ]: non-standard residue; d: D form. The star is where a group is joined. C18 diacid = O=C(O)CCCCCCCCCCCCCCCCC(=O)*; γGlu = O=C(O)[C@H](CCC(=O)[*:2])N[*:1]; AEEA = NCCOCCOCC(=O)O; Aib = CC(C)(N)C(=O)O
Metric Name: Relative hGIPR internalization (%)

> print(dat)
                                  substance                         metric.name  measured.result
1  HADGTFTSDYST[Aib]LDK([AEEA-AEEA-γGlu-C18 diacid])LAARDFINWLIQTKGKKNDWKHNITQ-OH [Compound 22]  Relative hGIPR internalization (%)              19%
2  HADGTFTSDYSTILDKLAARDFINWLIQTKGKKNDWKHNITQK([AEEA-AEEA-γGlu-C18 diacid])-OH [Compound 26]  Relative hGIPR internalization (%)              44%
3  HADGTFTSDYSIILDK([AEEA-AEEA-γGlu-C18 diacid])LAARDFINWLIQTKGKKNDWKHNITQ-OH [Compound 20]  Relative hGIPR internalization (%)              38%
4  H-HADGTFTSDYSTILDKLAARDFINWLIQTKGKKNDWK([AEEA-AEEA-γGlu-C18 diacid])HNITQ-OH [Compound 25]  Relative hGIPR internalization (%)              35%
5  HADGTFTSDYST[Aib]LDKLAARDFINWLIQTKGKKNDWKHNITQK([AEEA-AEEA-γGlu-C18 diacid])-OH [Compound 27]  Relative hGIPR internalization (%)              24%
6  HADGTFTSDYSTILDK([AEEA-AEEA-γGlu-C18 diacid])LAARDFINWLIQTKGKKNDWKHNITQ-OH [Compound 21]  Relative hGIPR internalization (%)              28%
7  HADGTFTSDYSTILDKK([AEEA-AEEA-γGlu-C18 diacid])AARDFINWLIQTKGKKNDWKHNITQ [Compound 23]  Relative hGIPR internalization (%)               3%
8  HADGTFTSDYSTILDKLAARDFINWLIQTKGKK([AEEA-AEEA-γGlu-C18 diacid])NDWKHNITQ-OH [Compound 24]  Relative hGIPR internalization (%)              41%
